# METHOD_DESCRIPTION: NCI Yeast Anticancer Drug Screen. Data for the sgs1 mgt1 strain (AID 161);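 note: 0% = growth of cultures given vehicle only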
# CONDITION_DETAILS: S. cerevisiae sgs1 mgt1 strain, at 50.0 µM, stronger effect = higher value
Compounds without any hit were thinned out: in the full panel of roughly 79,000, 15% have a hit.
Listed here are compounds together with their documented growth inhibition.
Numbers only; they are read as %.

CCOC(=O)CSc1ccnc(=O)[nH]1 : -5.35

Which measured growth inhibition value corresponds to Nc1nc2[nH]c(=O)cnc2c(=O)[nH]1 ?
-26.2

---

# METHOD_DESCRIPTION: NCI Yeast Anticancer Drug Screen. Data for the cln2 rad14 strain (AID 165);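 note: 0% = growth equal to vehicle treated cultures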
# CONDITION_DETAILS: S. cerevisiae cln2 rad14 strain, at 50.0 µM, stronger effect = higher value
About 79,000 compounds went through this panel and 15% of them were active in at least one assay; those are over-represented in the sample as a whole. The source made the active and inactive calls. Rule as the data show it: active = growth inhibition above about 70%; inactive = the rest.
RECORDED_ENDPOINT: growth inhibition

Sample answers from the record:
CCN(CC)c1ccc(N=Nc2nc(Cl)c(/C=C3\C(=O)c4ccccc4C3=C(C#N)C#N)s2)c(NC(C)=O)c1 : -38.6% (inactive)
O=C(CC(=O)c1ccc(Cl)cc1)c1ccc(Cl)cc1 : 0.35% (inactive)
CC(C)CCC[C@@H](C)[C@H]1CC[C@H]2[C@@H]3CC[C@H]4N(C)[C@@H](Cc5ccccc5)CC[C@]4(C)[C@H]3CC[C@]12C : 24.7% (inactive)
COc1cc(CCC(C)=O)ccc1OC(=O)c1c(-c2c(F)cccc2Cl)noc1C : 19.3% (inactive)
COc1ccc(C=C(c2ccc(OCc3ccccc3)cc2)c2ccc(OCc3ccccc3)cc2)cc1 : 7.5% (inactive)

Which measured growth inhibition value corresponds to CCOC(=S)SCc1ccc([N+](=O)[O-])cc1 ?
18.6% (inactive)

Which measured growth inhibition value corresponds to CCN(CC)C(=O)C(C)=O ?
12.9% (inactive)

Which measured growth inhibition value corresponds to CCCCc1ccc(-n2cnc3c(=O)[nH]c(N)nc32)cc1 ?
-0.4% (inactive)

Which measured growth inhibition value corresponds to Cc1cccc(C)c1NC(=O)C(=O)C(C(=O)c1ccccc1-c1ccccc1)C1OC(=O)c2ccccc21 (centres undefined) ?
-29.6% (inactive)

Which measured growth inhibition value corresponds to COc1c(CCl)cc(-c2sc3ccccc3c(=O)c2CCl)cc1CCl ?
2.85% (inactive)
